Tested on: COLO 205
Experiment: Cytotoxicity against human COLO205 cells
Type: cell-based
PROPERTY NAME: LC50 (µM)

compound=O=C(/C=C/c1ccc(CN(CCO)CCc2c[nH]c3ccccc23)cc1)NO endpoint_result=50.4
compound="CC(C)C(/C=C/c1ccccc1)n1cc(/C=C/C(=O)NO)nn1 (centres undefined)" endpoint_result=6.1
compound="O=C(/C=C/c1cn(C(/C=C/c2ccccc2)Cc2ccccc2)nn1)NO (centres undefined)" endpoint_result=8
compound="CC(/C=C/c1ccccc1)n1cc(/C=C/C(=O)NO)nn1 (centres undefined)" endpoint_result=5.2
